molecular target: Polyunsaturated fatty acid 5-lipoxygenase (Homo sapiens) (UniProt P09917); assay: Inhibition of human 5-LO at 2 uM incubated for 15 mins in presence of ATP by measuring fluorescence intensity relative to control
Sequence (P09917 whole entry): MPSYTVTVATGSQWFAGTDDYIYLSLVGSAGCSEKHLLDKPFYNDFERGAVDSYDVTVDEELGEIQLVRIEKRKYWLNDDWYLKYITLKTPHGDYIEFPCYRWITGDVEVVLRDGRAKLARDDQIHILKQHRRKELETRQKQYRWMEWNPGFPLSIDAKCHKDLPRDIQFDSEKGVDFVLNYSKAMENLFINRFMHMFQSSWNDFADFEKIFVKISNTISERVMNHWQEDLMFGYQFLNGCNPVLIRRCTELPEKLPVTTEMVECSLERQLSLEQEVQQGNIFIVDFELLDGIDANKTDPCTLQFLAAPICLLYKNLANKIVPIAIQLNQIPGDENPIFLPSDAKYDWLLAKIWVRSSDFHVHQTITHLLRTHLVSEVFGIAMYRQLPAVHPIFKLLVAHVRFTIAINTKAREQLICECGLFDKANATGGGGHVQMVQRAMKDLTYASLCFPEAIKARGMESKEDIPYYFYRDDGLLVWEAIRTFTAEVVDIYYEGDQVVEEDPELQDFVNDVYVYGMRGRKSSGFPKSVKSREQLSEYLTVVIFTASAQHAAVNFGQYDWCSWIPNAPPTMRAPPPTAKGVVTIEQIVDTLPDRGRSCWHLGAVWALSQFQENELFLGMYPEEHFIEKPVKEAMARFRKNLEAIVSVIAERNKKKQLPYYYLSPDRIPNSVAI
REPORTED METRIC: inhibition

INSERT INTO results (smi, observed) VALUES
  ('O=C(NCCCC[C@@H](CO)NC(=O)c1cccc(O)c1O)c1cccc(O)c1O', '67%'),
  ('CC(C)C(=O)OC[C@H](CCCCNC(=O)c1cccc(O)c1O)NC(=O)c1cccc(O)c1O', '80%'),
  ('CC(=O)OC[C@H](CCCCNC(=O)c1cccc(O)c1O)NC(=O)c1cccc(O)c1O', '78%'),
  ('O=C(Cc1ccccc1)OC[C@H](CCCCNC(=O)c1cccc(O)c1O)NC(=O)c1cccc(O)c1O', '72%'),
  ('O=C(Cc1ccc(O)cc1)OC[C@H](CCCCNC(=O)c1cccc(O)c1O)NC(=O)c1cccc(O)c1O', '77%'),
  ('O=C(Cc1ccccc1)OC[C@H](CCCCNC(=O)c1cccc(O)c1O)NC(=O)c1cccnc1', '66%'),
  ('CCC(=O)OC[C@H](CCCCNC(=O)c1cccc(O)c1O)NC(=O)c1cccc(O)c1O', '75%');

----------
Let's look at some compounds and their measured Activity.
test system: NIH3T3; experiment: Antifibrotic activity against TGFbeta-1 induced mouse NIH3T3 cells assessed as decrease in Acta2 mRNA expression at 1 uM incubated for 24 hrs by qRT-PCR analysis relative to control; assay type: functional; parameters: scale not given: the % may be the effect or the level left
REPORTED METRIC: Activity

INSERT INTO measurements (smi, reported_metric, observed) VALUES
  ('CC(=O)OC[C@H](CCCCNC(=O)c1cccc(O)c1O)NC(=O)c1cccc(O)c1O', 'Activity', '95%'),
  ('O=C(NCCCC[C@@H](CO)NC(=O)c1cccc(O)c1O)c1cccc(O)c1O', 'Activity', '70%'),
  ('CCC(=O)OC[C@H](CCCCNC(=O)c1cccc(O)c1O)NC(=O)c1cccc(O)c1O', 'Activity', '61%'),
  ('O=C(Cc1ccccc1)OC[C@H](CCCCNC(=O)c1cccc(O)c1O)NC(=O)c1cccnc1', 'Activity', '20%'),
  ('O=C(Cc1ccccc1)OC[C@H](CCCCNC(=O)c1cccc(O)c1O)NC(=O)c1cccc(O)c1O', 'Activity', '94%'),
  ('O=C(Cc1ccc(O)cc1)OC[C@H](CCCCNC(=O)c1cccc(O)c1O)NC(=O)c1cccc(O)c1O', 'Activity', '80%'),
  ('CC(C)C(=O)OC[C@H](CCCCNC(=O)c1cccc(O)c1O)NC(=O)c1cccc(O)c1O', 'Activity', '75%');

----------
tested on: Enterococcus faecium; assay: Antibacterial activity against Enterococcus faecium 310682 (VRE) assessed as bacterial growth inhibition incubated for 16 hrs in presence of brain heart infusion medium by broth microdilution method; type: functional, organism-based
Calls of active or inactive are those of the source. The rule behind the calls is not given here.
REPORTED METRIC: Activity

INSERT INTO assay_data (smi, study_system, observed) VALUES
  ('CC(=O)OC[C@H](CCCCNC(=O)c1cccc(O)c1O)NC(=O)c1cccc(O)c1O', 'Enterococcus faecium', 'inactive'),
  ('O=C(Cc1ccccc1)OC[C@H](CCCCNC(=O)c1cccc(O)c1O)NC(=O)c1cccc(O)c1O', 'Enterococcus faecium', 'inactive'),
  ('O=C(Cc1ccccc1)OC[C@H](CCCCNC(=O)c1cccc(O)c1O)NC(=O)c1cccnc1', 'Enterococcus faecium', 'inactive'),
  ('O=C(Cc1ccc(O)cc1)OC[C@H](CCCCNC(=O)c1cccc(O)c1O)NC(=O)c1cccc(O)c1O', 'Enterococcus faecium', 'inactive'),
  ('CC(C)C(=O)OC[C@H](CCCCNC(=O)c1cccc(O)c1O)NC(=O)c1cccc(O)c1O', 'Enterococcus faecium', 'inactive'),
  ('CCC(=O)OC[C@H](CCCCNC(=O)c1cccc(O)c1O)NC(=O)c1cccc(O)c1O', 'Enterococcus faecium', 'inactive'),
  ('O=C(NCCCC[C@@H](CO)NC(=O)c1cccc(O)c1O)c1cccc(O)c1O', 'Enterococcus faecium', 'inactive');
